B1: glmS ribozyme (parent)
chain: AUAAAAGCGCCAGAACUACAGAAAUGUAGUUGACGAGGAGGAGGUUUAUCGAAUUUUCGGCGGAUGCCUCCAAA

Variants of: B1
Assay: self-cleavage kobs at 10000 uM GlcN6P; higher = faster cleavage; RNA array
Details: with glucosamine-6-phosphate
Variants at the floor of the assay were thinned out.
Give self-cleavage kobs at 10000 uM GlcN6P for every item shown.

// A15U A33C C58A C68A : self-cleavage kobs at 10000 uM GlcN6P value = < 1e-05 s⁻¹

self-cleavage kobs at 10000 uM GlcN6P recorded for this variant, A12G G63C , is < 1e-05 s⁻¹

Sample U49G U55G ; self-cleavage kobs at 10000 uM GlcN6P observed: 0.000687 s⁻¹

The variant listed as U30A U31A has a reported self-cleavage kobs at 10000 uM GlcN6P of 0.0264 s⁻¹

Record summary for C19A G51A : reported self-cleavage kobs at 10000 uM GlcN6P = < 1e-05 s⁻¹

The variant identified as A15U U31A registered its self-cleavage kobs at 10000 uM GlcN6P at 0.00101 s⁻¹

The variant identified as A14G U56G registered its self-cleavage kobs at 10000 uM GlcN6P at 0.0704 s⁻¹

get_value(item= U30A U54G , readout=self-cleavage kobs at 10000 uM GlcN6P) returns 0.00479 s⁻¹

The variant A39G G60A showed self-cleavage kobs at 10000 uM GlcN6P equal to 2.33e-05 s⁻¹

Memo: A14U A33U , reported self-cleavage kobs at 10000 uM GlcN6P: 7.63e-05 s⁻¹

Notebook: A42U A48U A64U C68U , self-cleavage kobs at 10000 uM GlcN6P read as < 1e-05 s⁻¹

What the record says about A14C G41A C70U : self-cleavage kobs at 10000 uM GlcN6P is 0.0111 s⁻¹

So, A14U G32U ? Its self-cleavage kobs at 10000 uM GlcN6P was 0.00066 s⁻¹

// recorded self-cleavage kobs at 10000 uM GlcN6P for C8A G35U G44U A52G : < 1e-05 s⁻¹

Measured self-cleavage kobs at 10000 uM GlcN6P of G40A G41C : 0.000123 s⁻¹

Summary for this variant, G13U A36G : self-cleavage kobs at 10000 uM GlcN6P is < 1e-05 s⁻¹

Record C16A G40A . Reported self-cleavage kobs at 10000 uM GlcN6P: 0.000154 s⁻¹

Entry A36C A48U G63A — recorded self-cleavage kobs at 10000 uM GlcN6P = < 1e-05 s⁻¹

Looking up U31G U65G , I found its self-cleavage kobs at 10000 uM GlcN6P recorded as 0.00184 s⁻¹

For this variant ( G41U U65C ), measured self-cleavage kobs at 10000 uM GlcN6P is 2.23e-05 s⁻¹

Kindly note the recorded self-cleavage kobs at 10000 uM GlcN6P for A6U A64G , which is 0.00025 s⁻¹

The reported value for G7U G32A G43A in terms of self-cleavage kobs at 10000 uM GlcN6P is < 1e-05 s⁻¹
